Test system: U251 CNS
Test: NCI-60 one-dose screen, 48 h (100 = growth as untreated, 0 = no growth, -100 = all killed)
Settings: 10 µM unless noted
Compounds without any hit were thinned out: in the full panel of roughly 83,000, 20% have a hit.
growth of 20% or higher: true. Under 20%: false.

molecule	tgt	category label
Nc1nc(Nc2ccccc2SSc2ccccc2Nc2nc(N)nc(-c3ccc4ccccc4c3)n2)nc(-c2ccc3ccccc3c2)n1	U251 CNS	true
Oc1cccc2ccc(-c3nnc(SCc4ccc(O)c5ncccc45)o3)nc12	U251 CNS	false
COc1cc2nc(Cl)nc(Nc3cccc(C4=Nc5c(N)nc(N)nc5NC(c5ccc(F)cc5)C4)c3)c2cc1OC (centres undefined)	U251 CNS	false
O=C(NCc1ncc[nH]1)c1ccc(-c2nc3ccc4[nH]ncc4c3c3c2CCCC3)cc1	U251 CNS	false
O=C(CSc1nnc(-c2ccc(Cl)cc2)n1-c1ccccc1)Nc1cccc(Cl)c1	U251 CNS	true
COC(=O)C1(C)CCC[C@]2(C)[C@H]3C[C@H]4C(C(C)C)=C[C@]3(CC[C@@H]12)[C@H]1[C@@H]4[C@@H](OC(=O)c2ccco2)CC[C@@H]1OC(=O)c1ccco1 (some centres undefined)	U251 CNS	true
CNC(=O)c1cc(Oc2ccc3nc(NC(=O)c4cccc(OC(F)(F)F)c4)sc3c2)ccn1	U251 CNS	true
C#CCn1cccc1CNc1ccc(OC)cc1	U251 CNS	false

* * *

Tested on: OVCAR-5 ovarian
Experiment: NCI-60 one-dose screen, 48 h
Conditions: 10 µM unless noted
The panel holds about 83,000 compounds, 20% with a hit somewhere; the sample as a whole holds those more often. Active and inactive are the calls of the source. Rule for the calls: active = growth percent below 10; inactive = the rest.
Outcomes: active, inactive

> print(dat)
                                    compound  category.label
 1  COc1ccc(C(=O)CSc2nc3c(c(Nc4ccc(S(N)(=O)=O)cc4)n2)CCCC3)cc1        inactive
 2    O=C1/C(=C/C=C/c2ccco2)SC(=S)N1C1CCCCC1        inactive
 3  COc1cc2oc(-c3cccc(C(=O)N[C@@H](CC(C)C)C(=O)OC(C)(C)C)c3)cc(=O)c2c(OC)c1OC        inactive
 4  C=C(C=O)[C@@H]1CC[C@]2(C)[C@H](C(=O)C=C3[C@H]4C[C@](C)(C(=O)OC)CC[C@]4(C)CC[C@]32C)[C@@]1(C)CCC#N          active
 5  CC1(C)CC[C@]2(C(=O)O)CC[C@]3(C)C(=CC[C@@H]4[C@@]5(C)CC/C(=N\OCCC#N)C(C)(C)[C@@H]5CC[C@]43C)[C@@H]2C1        inactive
 6             CS(=O)(=O)c1ncc(-c2ccccc2)cn1        inactive
 7  N#Cc1cccc(NC(=O)c2cc(-c3ccc(F)cc3F)ccc2O)c1        inactive
 8  CCCn1cnc2c(c1=N)C(c1ccc(OC)cc1)c1sc3c(C)cccc3c1O2 (centres undefined)        inactive
 9  COc1ccc(/C=C/C(=O)c2cc(S(N)(=O)=O)c(OC)cc2OC)cc1        inactive
10  NC(N)=Nc1ccc(Nc2cccc(Nc3ccc(Cl)c(C(F)(F)F)c3)c2)cn1        inactive
11  Cn1ccnc1C(=O)/C=C/C=C/c1ccc(C(=O)Nc2ccc(F)cc2)cc1        inactive
12  COc1cc(-c2nc(-c3ccccc3)[nH]c2-c2ccnc(NCCCNS(=O)(=O)c3cccc(F)c3)n2)ccc1Cl        inactive
13  COc1cc(-c2nc(SCCC(C)C)nc(NNC(=O)c3ccncc3)c2C#N)cc(OC)c1OC        inactive
14  NC(N)=Nc1ccc(Oc2cccc(NC(N)=Nc3ccc(I)cc3F)c2)cc1        inactive
15  CCCCCc1ccc(S(=O)(=O)Nc2cccc(-c3csc(NC(=O)CN4CCN(C)CC4)n3)c2)cc1        inactive
16  CC1(COc2ccc3ncc(C#Cc4cncc(C(=O)Nc5cccc(C(F)(F)F)c5)c4)n3n2)COC1        inactive
17  CNC(=O)c1cc(Oc2ccc3nc(NC(=O)c4cccc(OC(F)(F)F)c4)sc3c2)ccn1        inactive
18  COc1cc(OC)cc(C(=O)Nc2cccc(C#Cc3cccc4[nH]nc(N)c34)c2)c1        inactive
19  Cc1ccc2sc3c(c2c1)OC(N)=C(C#N)C3c1cccc(F)c1 (centres undefined)        inactive

* * *

Tested on: UO-31 renal
Test: NCI-60 one-dose screen, 48 h (100 = growth as untreated, 0 = no growth, -100 = all killed)
Settings: 10 µM unless noted
About 83,000 compounds went through this panel and 20% of them were active in at least one assay; those are over-represented in the sample as a whole.
property name: growth (%)

compound	tgt	property name	recorded value
COC(=O)C1(C)CCC[C@]2(C)[C@H]3C[C@H]4C(C(C)C)=C[C@]3(CC[C@@H]12)[C@H]1[C@@H]4[C@@H](OC(=O)c2ccco2)CC[C@@H]1OC(=O)c1ccco1 (some centres undefined)	UO-31 renal	growth	101
CCO/C=N/C1=C(C#N)C(c2ccc(OC)cc2)c2sc3c(C)cccc3c2O1 (centres undefined)	UO-31 renal	growth	34.3
Nc1ncc(-c2ccc3ncnc(N4CCc5cc(F)c(F)cc54)c3c2)cn1	UO-31 renal	growth	8.51
CCOC(=O)c1c(NC(=O)c2ccccc2C(F)(F)F)sc2c1CCC(=O)C2	UO-31 renal	growth	-1.08
NS(=O)(=O)c1ccc(Nc2nc(N/N=C/c3ccc(Cl)cc3)nc(Nc3ccccc3)n2)cc1	UO-31 renal	growth	82.1
CCNC(=O)N1CCc2cc(OC)c(OCCc3ccc(OC)nc3)cc2C1c1ccc(C)cc1C (centres undefined)	UO-31 renal	growth	28.5
O=C(CNc1nc(-c2cccc([N+](=O)[O-])c2)cs1)Nc1cccc([N+](=O)[O-])c1	UO-31 renal	growth	-79.3
C=C(C)[C@@H]1CC[C@]2(COC)CC[C@]3(C)[C@H](CC[C@@H]4[C@@]5(C)CCCNC(C)(C)[C@@H]5CC[C@]43C)[C@@H]12	UO-31 renal	growth	60.8
NC(N)=Nc1ccc(Oc2cccc(Nc3ccc(Cl)cc3)c2)cn1	UO-31 renal	growth	39.1

* * *

Some compounds, each annotated with its measured growth.
Tested on: COLO 205 colon
Assay: NCI-60 one-dose screen, 48 h (100 = growth as untreated, 0 = no growth, -100 = all killed)
Conditions: 10 µM unless noted
About 83,000 compounds went through this panel and 20% of them were active in at least one assay; those are over-represented in the sample as a whole.
property name: growth (%)

> print(dat)
                               entry.smiles             tgt  endpoint.unit  recorded.value
1  O=S(=O)(NCCCNc1nccc(-c2[nH]c(-c3ccccc3)nc2-c2ccc(Cl)c(O)c2)n1)c1cccc2ccccc12  COLO 205 colon              %            93.8
2  COc1ccc(-c2nn(-c3ccc(S(C)(=O)=O)cc3)cc2/C=N/O)cc1  COLO 205 colon              %             119
3    N/C(=N\C(N)=N\c1nc2ccccc2s1)c1ccncc1Cl  COLO 205 colon              %            50.4
4  CC1=NC2=NN3C(=NN2C(c2ccccc2)=C1)N=NC(c1ccc(Br)cc1)=C3c1ccc(Br)cc1  COLO 205 colon              %             112
5  Cc1nc2ncc(-c3ccc4ncnc(NCc5ccccc5)c4c3)cc2[nH]1  COLO 205 colon              %            84.4

* * *

Test system: NCI/ADR-RES ovarian
Assay: NCI-60 one-dose screen, 48 h
Settings: 10 µM unless noted
The panel holds about 83,000 compounds, 20% with a hit somewhere; the sample as a whole holds those more often. Active and inactive are the calls of the source. Rule for the calls: active = growth percent below 10; inactive = the rest.
Classes used: active, inactive

> print(dat)
                                    molecule  category.label
 1  COc1ccc(CCOc2cc3c(cc2OC)CCN(C(=O)NCc2cocn2)C3c2ccc(C)cc2C)cc1 (centres undefined)          active
 2  Cc1c(Cl)cccc1S(=O)(=O)Nc1ccc2c(c1)C(=O)N(C1CCC(=O)NC1=O)C2=O (centres undefined)        inactive
 3        CCCCNNC(=O)c1ccc(-c2cccc(F)c2F)cc1        inactive
 4  Cn1cc(CNc2nc3ccc(OC/C(=C/F)CN)cc3o2)ccc1=O        inactive
 5  COc1ccc(S(=O)(=O)NCCCNc2nccc(-c3cn(C(C)(C)C)nc3-c3ccc(Cl)c(OC)c3)n2)cc1        inactive
 6  CNC(=O)c1cc(-c2ccc(NS(=O)(=O)c3ccc(C)cc3)cc2)nc2cccnc12        inactive
 7  COc1ccc(C2c3sc4c(C)cccc4c3Oc3nc(CC(=O)Nc4ccccc4)[nH]c(=O)c32)cc1 (centres undefined)        inactive
 8  COc1cccc(O)c1/C=C(/C)c1ccc2c(OC)cccc2[o+]1        inactive
 9  CCn1c(SCC(=O)Nc2cccc(C(=O)/C=C/c3ccccc3Cl)c2)nc2ccccc2c1=O        inactive
10  COc1cccc(/C=C(/C)c2ccc3cccc(OC)c3[o+]2)c1O        inactive
11  NC(N)=Nc1ccc(Oc2cccc(Nc3ccc(Br)c(C(F)(F)F)c3)c2)cn1        inactive
12     O=C(NNc1nc2cc(F)ccc2n2cccc12)c1ccncn1          active
13  O=C1CCC(N2C(=O)c3ccc(NS(=O)(=O)c4ccccc4OC(F)(F)F)cc3C2=O)C(=O)N1 (centres undefined)        inactive
14  CN1CCN(c2ccc(/C=N/Nc3nc4ccccc4c(=O)n3-c3ccccc3)cc2)CC1        inactive
15  Cc1ccc(-n2cc(/C=N/NC(=O)c3ccncc3)c(-c3ccc(S(C)(=O)=O)cc3)n2)cc1        inactive
16  CCc1cccc2c3c(sc12)C(c1ccc(OC)cc1)C(C#N)=C(/N=C/c1ccc(Cl)cc1)O3 (centres undefined)          active
17  Nc1nc(-c2cccc([N+](=O)[O-])c2)c(N=Nc2ccccc2)s1        inactive
18  O=C(CNc1nc(-c2cccc([N+](=O)[O-])c2)cs1)Nc1cccc([N+](=O)[O-])c1          active
19  COc1ccc(-c2cc(-c3ccc(Cl)cc3)c(C#N)c(=O)n2Cc2ccc(C(=O)O)cc2)cc1        inactive

Where do the numbers come from? From PubChem BioAssay (NCI).
